SUBJECT_OF_TEST: BIR2 domain of XIAP (Homo sapiens (Human), UniProt P98170, C202A/C213G)
Sequence (P98170 124-240 with tags or gaps C202A/C213G limits assumed): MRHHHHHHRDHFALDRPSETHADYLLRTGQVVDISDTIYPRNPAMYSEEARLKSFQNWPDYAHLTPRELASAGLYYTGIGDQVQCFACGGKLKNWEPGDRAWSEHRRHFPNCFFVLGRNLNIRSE
TEST_METHOD_NOTES: TR-FRET assay for BIR2 (inhibition of binding of XIAP BIR2 domain to SMAC-derived Peptide A)
CONDITION_SUMMARY: 6x His-tagged BIR2 domain (aa 124-240 of XIAP) 10 nM, Peptide A 20 nM, TR-FRET; read-out: IC50 BIR2
Where a name gives a salt, the structure may show the parent alone.
QUANTITY: IC50 (nM)
Answers are plain numbers, in nM.

MOLECULE	SUBJECT_OF_TEST	IC50 (nM)
CN[C@@H](C)C(=O)N[C@H]1CN(C(=O)c2ccc(C#N)cc2)c2cc(Cl)ccc2N(Cc2c(OCC(F)(F)F)ccc3cc(Br)ccc23)C1=O [Example 135, hydrochloride]	BIR2 domain of XIAP (Homo sapiens (Human), UniProt P98170, C202A/C213G)	32
CN[C@@H](C)C(=O)N[C@H]1CN(C(=O)C2CCOCC2)c2cc(C(F)(F)F)ccc2N(Cc2c(C3CC3)cnc3ccccc23)C1=O [Example 184]	BIR2 domain of XIAP (Homo sapiens (Human), UniProt P98170, C202A/C213G)	18.3

API: the following record is the query input.
Enquiry: Recorded IC50 of CN[C@@H](C)C(=O)N[C@H]1CN(C(=O)CC2CCCCC2)c2ccccc2N(Cc2c(OC)ccc3cc(Br)ccc23)C1=O [Example 13i] , please.
Return: 78

----------
SUBJECT_OF_TEST: BIR2 domain of XIAP (Homo sapiens (Human), UniProt P98170, C202A/C213G)
TEST_METHOD_NOTES: TR-FRET assay for BIR2 (inhibition of binding of XIAP BIR2 domain to SMAC-derived Peptide A)
CONDITION_SUMMARY: 6x His-tagged BIR2 domain (aa 124-240 of XIAP) 10 nM, Peptide A 20 nM, TR-FRET; read-out: IC50 BIR2
Structures can show the parent of a compound that is named as a salt.
Exercise: for every item that follows, state its recorded log10 IC50.
Could you please treat all values as log10 of IC50 in nM?

Record excerpt, results attached:
MOLECULE	log10 IC50
CC(=O)c1ccc(C(=O)N2C[C@H](NC(=O)[C@H](C)N)C(=O)N(Cc3c(OC(F)F)ccc4ccccc34)c3ccccc32)cc1 [Example 69i]	1.59
CN[C@@H](C)C(=O)N[C@H]1CN(C(=O)c2ccc(C#N)cc2)c2cc(C#N)ccc2N(Cc2c(OC)ccc3c(Br)cccc23)C1=O [Example 143, hydrochloride]	0.71
CN[C@@H](C)C(=O)N[C@H]1CN(C(=O)CCCNC(=O)OCC2c3ccccc3-c3ccccc32)c2ccccc2N(Cc2c(OC)ccc3cc(C(=O)OC)ccc23)C1=O [Example 48, hydrochloride]	1.36
CN[C@@H](C)C(=O)N[C@H]1CN(C(=O)c2ccccc2C(C)=O)c2ccccc2N(Cc2c(C)ccc3ccccc23)C1=O	1.56

Please give log10 IC50, item by item, for the list that follows.
1. CC(=O)c1ccc(C(=O)N2C[C@H](NC(=O)[C@H](C)N)C(=O)N(Cc3noc4ccccc34)c3ccccc32)cc1 [Example 69k]
2. CN[C@@H](C)C(=O)N[C@H]1CN(C(=O)c2ccc(C(=O)OC)cc2)c2ccccc2N(Cc2c(C)ccc3ccccc23)C1=O [Example 96a, hydrochloride]
3. CN[C@@H](C)C(=O)N[C@H]1CN(S(=O)(=O)c2ccc(OC)cc2)c2ccccc2N(Cc2c(C)ccc3ccccc23)C1=O [Example 98f]
4. CN[C@@H](C)C(=O)N[C@H]1CN(C(=O)CS(C)(=O)=O)c2ccc(C#N)cc2N(Cc2c(C)ccc3ccccc23)C1=O [Example 172, hydrochloride]
5. CN[C@@H](C)C(=O)N[C@H]1CN(C(=O)c2ccc(C(C)=O)cc2)c2ccccc2N(Cc2c(OC)ccc3cc(C(=O)OC)ccc23)C1=O [Example 43, hydrochloride]
6. CN[C@@H](C)C(=O)N[C@H]1CN(C(=O)c2ccc(C(C)(C)O)cc2)c2ccccc2N(Cc2c(OC)ccc3cc(Br)ccc23)C1=O [Example 95, trifluoroacetate]

Return:
1: 1.43; 2: 2.00; 3: 2.25; 4: 1.98; 5: 1.76; 6: 0.85

Please give log10 IC50, item by item, for the list that follows.
1. CN[C@@H](C)C(=O)N[C@H]1CN(S(=O)(=O)NC)c2ccccc2N(Cc2c(C)ccc3ccccc23)C1=O [Example 98b]
2. CCN[C@@H](CC)C(=O)N[C@H]1CN(C(=O)CS(C)(=O)=O)c2ccccc2N(Cc2c(OC)ccc3c(Br)cccc23)C1=O [Example 155, hydrochloride]

Return:
[2.27, 1.27]
